tested on: Klebsiella pneumoniae; assay: Antibacterial activity against Klebsiella pneumoniae ATCC 700603 assessed as inhibition of bacterial growth measured after 18 hrs by resazurin dye based analysis; assay type: functional
Observable: MIC

As a guide, the following entries are already answered.
For the molecule COC(=O)[C@@]1(C)CCC[C@]2(C)c3cc(OC(=O)CCCNCCCCNCCCNC(=O)Oc4ccc5c(c4)[C@@]4(C)CCC[C@](C)(C(=O)OC)[C@@H]4CC5)ccc3CC[C@@H]12.O=C(O)C(F)(F)F.O=C(O)C(F)(F)F , report MIC. > 30.2 µM

For the molecule C[C@]1(C(=O)NCCCNCCCCCCNCCCNC(=O)[C@@]2(C)CCC[C@]3(C)c4cc(O)ccc4CC[C@@H]23)CCC[C@]2(C)c3cc(O)ccc3CC[C@@H]12.O=C(O)C(F)(F)F.O=C(O)C(F)(F)F , report MIC. > 32.9 µM

For the molecule C[C@]1(C(=O)NCCCNCCCCCCCCCCNCCCNC(=O)[C@@]2(C)CCC[C@]3(C)c4cc(O)ccc4CC[C@@H]23)CCC[C@]2(C)c3cc(O)ccc3CC[C@@H]12.O=C(O)C(F)(F)F.O=C(O)C(F)(F)F , report MIC. > 31.1 µM

For the molecule C[C@]1(C(=O)O)CCC[C@]2(C)c3cc(OC(=O)CCCNCCCCCCCNCCCNC(=O)Oc4ccc5c(c4)[C@@]4(C)CCC[C@](C)(C(=O)O)[C@@H]4CC5)ccc3CC[C@@H]12.O=C(O)C(F)(F)F.O=C(O)C(F)(F)F , report MIC. > 29.8 µM

For the molecule C[C@]1(C(=O)O)CCC[C@]2(C)c3cc(OC(=O)NCCCNCCCCCCCCN)ccc3CC[C@@H]12.O=C(O)C(F)(F)F.O=C(O)C(F)(F)F , report MIC. > 43.8 µM

For the molecule C[C@]1(C(=O)NCCCNCCCCCCCCNCCCNC(=O)[C@@]2(C)CCC[C@]3(C)c4cc(O)ccc4CC[C@@H]23)CCC[C@]2(C)c3cc(O)ccc3CC[C@@H]12.O=C(O)C(F)(F)F.O=C(O)C(F)(F)F , report MIC. > 32 µM

---
For the molecule C[C@]1(C(=O)O)CCC[C@]2(C)c3cc(OC(=O)NCCCNCCCCCCCCCCN)ccc3CC[C@@H]12 , report MIC. > 42.2 µM

For the molecule C[C@]1(C(=O)O)CCC[C@]2(C)c3cc(O)ccc3CC[C@@H]12 [PODOCARIC ACID] , report MIC. > 117 µM

For the molecule CCCCCNC(=O)[C@@]1(C)CCC[C@]2(C)c3cc(OC(=O)CCCNCCCCCCCCCCCCNCCCNC(=O)Oc4ccc5c(c4)[C@@]4(C)CCC[C@](C)(C(=O)NCCCCC)[C@@H]4CC5)ccc3CC[C@@H]12.O=C(O)C(F)(F)F.O=C(O)C(F)(F)F , report MIC. > 25 µM

For the molecule C[C@@]12CCC[C@](C)(C(=O)O)[C@H]1CCc1ccc(OC(=O)CCCNCCCCCCNCCCNC(=O)Oc3ccc4c(c3)[C@@]3(C)CCC[C@](C)(C(=O)O)[C@@H]3CC4)cc12.O=C(O)C(F)(F)F.O=C(O)C(F)(F)F , report MIC. > 30.2 µM

For the molecule C[C@]1(C(=O)O)CCC[C@]2(C)c3cc(OC(=O)NCCCNCCCCN)ccc3CC[C@@H]12 , report MIC. > 47.5 µM
